Kindly state bioavailability for each of the entries shown.
# Assay text: IV/PO pharmacokinetic study in dogs
# Assay type: in vivo, male beagle dogs
# Conditions: male, beagle, plasma; dog, PO vs IV AUClast
Express it in %; write the number only.

stdin: Entry C[C@H](C[C@@H](Cc1ccc(-c2cc(Cl)ccc2F)cc1)NC(=O)c1cnco1)C(=O)O : reported bioavailability = ?
stdout: 42

stdin: Field entry: CCc1ncc(C(=O)N[C@H](Cc2ccc(-c3cc(Cl)ccc3F)cc2)C[C@@H](C)C(=O)O)o1
stdout: 64

stdin: Field entry: COc1cc(C(=O)N[C@H](Cc2ccc(-c3cc(Cl)ccc3F)cc2)C[C@@H](O)C(=O)O)on1
stdout: 99

###

# Assay text: IV/PO pharmacokinetic study in rats
# Format: in vivo, male Sprague-Dawley rats
# Conditions: rat, IV; dose divided by AUClast
Assay readout: CLlast Mean (mL/min/kg)
Express it in mL/min/kg; write the number only.

stdin: Entry C[C@H](C[C@@H](Cc1ccc(-c2cc(Cl)ccc2F)cc1)NC(=O)c1cnco1)C(=O)O [Comparison Compound C4] : reported CLlast Mean = ?
stdout: 11.2

stdin: Field entry: COc1cc(C(=O)N[C@H](Cc2ccc(-c3cc(Cl)ccc3F)cc2)C[C@@H](O)C(=O)O)on1 [Comparison Compound C2]
stdout: 28.3

stdin: Field entry: Cc1cnc(C(=O)N[C@H](Cc2ccc(-c3cc(Cl)ccc3F)cc2)C[C@@H](O)C(=O)O)o1 [Compound 1]
stdout: 13.8

stdin: Field entry: CCc1ncc(C(=O)N[C@H](Cc2ccc(-c3cc(Cl)ccc3F)cc2)C[C@@H](C)C(=O)O)o1 [Comparison Compound C3]
stdout: 10

###

# Assay text: IV/PO pharmacokinetic study in rats
# Format: in vivo, male Sprague-Dawley rats
# Parameters: concentration or dose not given beside the values
# Conditions: male, Sprague-Dawley, plasma; rat, IV; read-out: AUClast Mean
Assay readout: AUC(0-t) (ng·h/mL)
Express it in ng·h/mL; write the number only.

stdin: Entry Cc1cnc(C(=O)N[C@H](Cc2ccc(-c3cc(Cl)ccc3F)cc2)C[C@@H](O)C(=O)O)o1 [Compound 1] : reported AUC(0-t) = ?
stdout: 610

stdin: Field entry: COc1cc(C(=O)N[C@H](Cc2ccc(-c3cc(Cl)ccc3F)cc2)C[C@@H](O)C(=O)O)on1 [Comparison Compound C2]
stdout: 480

stdin: Field entry: CCc1ncc(C(=O)N[C@H](Cc2ccc(-c3cc(Cl)ccc3F)cc2)C[C@@H](C)C(=O)O)o1 [Comparison Compound C3]
stdout: 1500

stdin: Field entry: C[C@H](C[C@@H](Cc1ccc(-c2cc(Cl)ccc2F)cc1)NC(=O)c1cnco1)C(=O)O [Comparison Compound C4]
stdout: 830

###

# Assay text: IV/PO pharmacokinetic study of Compound 1 in monkeys
# Type: in vivo
# Conditions: male, cynomolgus monkey, plasma, PO, 1 mg/kg, read-out: AUClast Mean
Assay readout: AUC(0-t)
Give your result as the value with the unit written after it.

stdin: Entry Cc1cnc(C(=O)N[C@H](Cc2ccc(-c3cc(Cl)ccc3F)cc2)C[C@@H](O)C(=O)O)o1 : reported AUC(0-t) = ?
stdout: 1660 ng·h/mL

###

# Assay text: IV/PO pharmacokinetic study of Compound 1 in monkeys
# Type: in vivo
# Conditions: male, cynomolgus monkey, plasma, IV, 1 mg/kg, read-out: AUClast Mean
Assay readout: AUC(0-t) (ng·h/mL)
Express it in ng·h/mL; write the number only.

stdin: Entry Cc1cnc(C(=O)N[C@H](Cc2ccc(-c3cc(Cl)ccc3F)cc2)C[C@@H](O)C(=O)O)o1 : reported AUC(0-t) = ?
stdout: 2780
